# TESTED ON: Adenosine receptor A1 (Homo sapiens) (UniProt P30542)
# Sequence (whole entry): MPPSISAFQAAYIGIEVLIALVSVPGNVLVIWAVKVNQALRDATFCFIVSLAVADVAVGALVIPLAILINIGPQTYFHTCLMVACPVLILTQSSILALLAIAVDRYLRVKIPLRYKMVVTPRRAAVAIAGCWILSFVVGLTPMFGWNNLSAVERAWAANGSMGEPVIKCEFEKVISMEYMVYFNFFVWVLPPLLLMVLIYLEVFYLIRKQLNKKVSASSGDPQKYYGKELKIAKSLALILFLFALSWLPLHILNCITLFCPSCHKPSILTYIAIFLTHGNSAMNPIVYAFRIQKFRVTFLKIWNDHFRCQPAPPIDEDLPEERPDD
# ASSAY REMARKS: Allosteric modulation of Homo sapiens (human) Adenosine A1 receptor expressed in CHO cells assessed as reduction of cAMP level at 10 uM after 6 min by radioimmunoassay
# Assay type: functional, cell-based
# Design: scale not given: the % may be the effect or the level left
OBSERVABLE: Activity (%)

{"COMPOUND": "CS(=O)(=O)OC1CCc2c(sc(N)c2C(=O)c2ccc(Cl)cc2)C1 (stereo unspecified)", "Activity [%]": 46}
{"COMPOUND": "Nc1sc2c(c1C(=O)c1ccc(Cl)cc1)CCC(O)C2 (stereo unspecified)", "Activity [%]": 52}
{"COMPOUND": "Nc1sc2c(c1C(=O)c1ccc(Cl)cc1)CCCC2", "Activity [%]": -55}
{"COMPOUND": "Nc1sc2ccccc2c1C(=O)c1ccc(Cl)cc1", "Activity [%]": -29}

(P) Nc1sc2c(c1C(=O)c1ccc(Cl)cc1)CCC(Cc1ccccc1)C2 (stereo unspecified)
(Q) Nc1sc2c(c1C(=O)c1ccc(Cl)cc1)CCS2
// compare measured Activity between P and Q ; output the lower one Give the label of your selection. Q
